Note to self: these compounds have pIC50 reported for Peptidyl-prolyl cis-trans isomerase FKBP1A (Homo sapiens, UniProt P62942) in various publications.
pIC50: −log10 of the molar value.
Kindly return satisfied if reported pIC50 is no lower than 8; return not satisfied if it is lower.

Qu. Check this compound for pIC50 at or above 8: CCC(C)(C)C(=O)C(=O)N1CCCC[C@H]1C(=O)OCCOc1ccc(OC)c(OC)c1
Ans. not satisfied

Qu. Check this compound for pIC50 at or above 8: CC[C@@H]1/C=C(\C)C[C@H](C)C[C@H](OC)[C@H]2O[C@@](O)(C(=O)C(=O)N3CCCC[C@H]3C(=O)O[C@H](/C(C)=C/[C@@H]3CC[C@@H](O)[C@H](OC)C3)[C@H](C)CCC1=O)[C@H](C)C[C@@H]2OC
Ans. satisfied

Qu. Check this compound for pIC50 at or above 8: CC(C)(C)CC(=O)C(=O)N1CCCC[C@H]1C(=O)OCCC/N=C(S)/N=C1\C=CC(=C2c3ccc(O)cc3Oc3cc(O)ccc32)C(C(=O)O)=C1
Ans. not satisfied

Next:
Qu. Check this compound for pIC50 at or above 8: COc1ccc(CC[C@@H](OC(=O)[C@@H]2CCCCN2C(=O)C(=O)[C@@]2(O)CCCC[C@H]2C)c2cccc(OCC(=O)O)c2)cc1OC
Ans. not satisfied

Qu. Check this compound for pIC50 at or above 8: CO[C@H]1C[C@@H]2CC[C@@H](C)[C@@](O)(O2)C(=O)C(=O)N2CCCC[C@H]2C(=O)O[C@H]([C@H](C)C[C@@H]2CC[C@@H](OC(=O)N3CCOCC3)[C@H](OC)C2)CC(=O)[C@H](C)/C=C(\C)[C@@H](O)[C@@H](OC)C(=O)[C@H](C)C[C@H](C)CCCC/C=C/1C
Ans. not satisfied

* * *

Note to self: these compounds have log10(IC50) reported for Peptidyl-prolyl cis-trans isomerase FKBP1A (Homo sapiens, UniProt P62942) in various publications.
Annotation: log10 of IC50, nM basis.

For orientation, consider the following solved cases.
Qu. State the measured log10(IC50) (Peptidyl-prolyl cis-trans isomerase FKBP1A (Homo sapiens, UniProt P62942)) of COc1ccc(CC[C@@H](OC(=O)[C@@H]2CCCCN2C(=O)C(=O)[C@]2(O)CCCC[C@@H]2C)c2cccc(OCC(=O)O)c2)cc1OC (mixture of isomers)
Ans. 1.78

Qu. State the measured log10(IC50) (Peptidyl-prolyl cis-trans isomerase FKBP1A (Homo sapiens, UniProt P62942)) of CC[C@@H]1/C=C(\C)C[C@H](C)C[C@H](OC)[C@H]2O[C@@](O)(C(=O)C(=O)N3CCCC[C@H]3C(=O)O[C@H](/C(C)=C/C3CC[C@@H](OCC(N)=O)[C@H](OC)C3)[C@H](C)[C@@H](O)CC1=O)[C@H](C)C[C@@H]2OC (stereo not given in full)
Ans. -0.22

Qu. State the measured log10(IC50) (Peptidyl-prolyl cis-trans isomerase FKBP1A (Homo sapiens, UniProt P62942)) of CC[C@@H]1/C=C(\C)C[C@H](C)C[C@H](OC)[C@H]2O[C@@](O)(C(=O)C(=O)N3CCCC[C@H]3C(=O)O[C@H](/C(C)=C/C3CC[C@@H](OCC(=O)Nc4ccc(C(F)(F)F)cc4)[C@H](OC)C3)[C@H](C)[C@@H](O)CC1=O)[C@H](C)C[C@@H]2OC (stereo not given in full)
Ans. 2.76

Qu. State the measured log10(IC50) (Peptidyl-prolyl cis-trans isomerase FKBP1A (Homo sapiens, UniProt P62942)) of C[C@@H]1C[C@@H]([C@H](O)CC2CC(=O)NC(=O)C2)/C(=N\O)[C@@H](C)C1
Ans. 5.25

Next:
Qu. State the measured log10(IC50) (Peptidyl-prolyl cis-trans isomerase FKBP1A (Homo sapiens, UniProt P62942)) of CCC(C)(C)C(=O)C(=O)N1CCC[C@H]1C(=O)O[C@H](CCc1ccc(OC)c(OC)c1)c1cccc(OCC(=O)O)c1
Ans. 2.90

* * *

Note to self: these compounds have log10 of IC50 reported for Peptidyl-prolyl cis-trans isomerase FKBP1A (Homo sapiens) in various publications.
Annotation: log10 of IC50, µM basis.

For orientation, consider the following solved cases.
Qu. State its log10 of IC50: COc1ccc(CC[C@@H](OC(=O)[C@@H]2CCCCN2C(=O)C(=O)[C@]2(O)CCCC[C@H]2C)c2cccc(OCC(=O)O)c2)cc1OC
Ans. -1.22

Qu. State its log10 of IC50: CC[C@H]1CCCC[C@@]1(O)C(=O)C(=O)N1CCCC[C@H]1C(=O)O[C@H](CCc1ccc(OC)c(OC)c1)c1cccc(OCC(=O)O)c1 (mixture of isomers)
Ans. -0.24

Qu. State its log10 of IC50: CC[C@@H]1/C=C(\C)C[C@H](C)[C@H](OC)[C@H]2O[C@@](O)(C(=O)C(=O)N3CCCC[C@H]3C(=O)O[C@H](/C(C)=C/[C@@H]3CC[C@@H](Oc4ccc5c(ccn5C)c4)[C@H](OC)C3)[C@H](C)[C@@H](O)CC1=O)[C@H](C)C[C@@H]2OC
Ans. -2.44

Qu. State its log10 of IC50: CC[C@@H]1/C=C(\C)C[C@H](C)[C@H](OC)[C@H]2O[C@@](O)(C(=O)C(=O)N3CCCC[C@H]3C(=O)O[C@H](/C(C)=C/[C@@H]3CC[C@@H](O)[C@H](OC)C3)[C@H](C)[C@@H](O)CC1=O)[C@H](C)C[C@@H]2OC
Ans. -2.80

Qu. State its log10 of IC50: CC[C@@H]1/C=C(\C)C[C@H](C)C[C@H](OC)[C@H]2O[C@@](O)(C(=O)C(=O)N3CCCC[C@H]3C(=O)O[C@H](/C(C)=C/C3CC[C@@H](OCC(=O)Nc4ccc(F)cc4)[C@H](OC)C3)[C@H](C)[C@@H](O)CC1=O)[C@H](C)C[C@@H]2OC (some centres undefined)
Ans. -1.34

Next:
Qu. State its log10 of IC50: CC[C@@H]1/C=C(\C)C[C@H](C)C[C@H](OC)[C@H]2O[C@@](O)(C(=O)C(=O)N3CCCC[C@H]3C(=O)O[C@H](/C(C)=C/C3CC[C@@H](OCC(=O)Nc4ccc(O)cc4)[C@H](OC)C3)[C@H](C)[C@@H](O)CC1=O)[C@H](C)C[C@@H]2OC (some centres undefined)
Ans. -1.80

Qu. State its log10 of IC50: CC[C@@H]1/C=C(\C)C[C@H](C)C[C@H](OC)[C@H]2O[C@@](O)(C(=O)C(=O)N3CCCC[C@H]3C(=O)O[C@H](/C(C)=C/C3CC[C@@H](OCC(=O)NC4CCCCC4)[C@H](OC)C3)[C@H](C)[C@@H](O)CC1=O)[C@H](C)C[C@@H]2OC (some centres undefined)
Ans. -2.70

Qu. State its log10 of IC50: CC[C@@H]1/C=C(\C)C[C@H](C)C[C@H](OC)[C@H]2O[C@@](O)(C(=O)C(=O)N3CCCC[C@H]3C(=O)O[C@H](/C(C)=C/[C@@H]3CC[C@@H](O)[C@H](OC)C3)[C@H](C)/C=C/C1=O)[C@H](C)C[C@@H]2OC
Ans. -0.28

* * *

Note to self: these compounds have IC50 reported for Peptidyl-prolyl cis-trans isomerase FKBP1A (Homo sapiens) in various publications.
The threshold is 1000 nM. Values of IC50 beneath it are tagged Condition met; values meeting or exceeding it are tagged Condition not met.

Before answering, review these 5 worked examples.
Qu. # check: IC50 < 1000 nM for CCC(C)(C)C(=O)C(=O)N1CCCC[C@H]1C(=O)OCCCc1cccnc1
Ans. Condition not met

Qu. # check: IC50 < 1000 nM for CCC(C)(C)C(=O)C(=O)N1CCC[C@H]1C(=O)O[C@H](CCc1ccc(OC)c(OC)c1)c1cccc(OCCN2CCOCC2)c1
Ans. Condition not met

Qu. # check: IC50 < 1000 nM for C[C@@H]1C[C@@H]([C@H](O)CC2CC(=O)N(Cc3ccccc3)C(=O)C2)C(=O)[C@@H](C)C1
Ans. Condition not met

Qu. # check: IC50 < 1000 nM for CC[C@@H]1/C=C(\C)C[C@H](C)[C@H](OC)[C@H]2O[C@@](O)(C(=O)C(=O)N3CCCC[C@H]3C(=O)O[C@H](/C(C)=C/[C@@H]3CC[C@@H](Oc4ccc5[nH]ccc5c4)[C@H](OC)C3)[C@H](C)[C@@H](O)CC1=O)[C@H](C)C[C@@H]2OC
Ans. Condition met

Qu. # check: IC50 < 1000 nM for CCC(C)(C)C(=O)C(=O)N1CCC[C@H]1C(=O)OCCCc1cccnc1
Ans. Condition not met

Next:
Qu. # check: IC50 < 1000 nM for CC[C@@H]1/C=C(\C)C[C@H](C)[C@H](OC)[C@H]2O[C@@](O)(C(=O)C(=O)N3CCCC[C@H]3C(=O)O[C@H](/C(C)=C/[C@@H]3CC[C@@H](Oc4ccc5ccccc5c4)[C@H](OC)C3)[C@H](C)[C@@H](O)CC1=O)[C@H](C)C[C@@H]2OC
Ans. Condition met
